molecular target: Glutamate receptor ionotropic, kainate; experiment: Ability of compound to displace [3H]- kainate from ionotropic glutamate receptor kainate in rat cortical membranes
Decide using IC50 alone. Strictly below 50 µM: t. Equal to or above 50 µM: f.

- Cpd Smiles: "Nc1cc2c(=O)n(O)c(=O)[nH]c2cc1Cl"
  Qualitative Label: "f"
- Cpd Smiles: "O=c1[nH]c2cc(Cl)cc(Cl)c2c(=O)n1O"
  Qualitative Label: "f"
- Cpd Smiles: "O=c1[nH]c2cc(Cl)ccc2c(=O)n1O"
  Qualitative Label: "f"
- Cpd Smiles: "O=c1[nH]c2cc(Cl)c(-n3cnnc3)cc2c(=O)n1O"
  Qualitative Label: "t"
- Cpd Smiles: "O=c1[nH]c2cc(Cl)c(Cl)cc2c(=O)n1O"
  Qualitative Label: "f"
- Cpd Smiles: "O=c1[nH]c2cc(Cl)c([N+](=O)[O-])cc2c(=O)n1O"
  Qualitative Label: "t"
